# Probable nicotinate-nucleotide adenylyltransferase (Staphylococcus aureus (strain N315)): IC50 values follow
property-measured: IC50 (µM)

| molecule | assay-system | IC50, µM |
| --- | --- | --- |
| Cc1cccc(C)c1Nc1nnc(SCC(=O)C(C#N)c2nc3ccccc3[nH]2)s1 (centres undefined) | Probable nicotinate-nucleotide adenylyltransferase (Staphylococcus aureus (strain N315)) | 25.2 |
| C#CCN(C[C@@H]1c2c(c(O)n(-c3ccccc3)c2O)C[C@@H](OC(=O)Nc2cccs2)[C@H]1OC(=O)Nc1cccs1)S(=O)(=O)c1ccc(C)cc1 | Probable nicotinate-nucleotide adenylyltransferase (Staphylococcus aureus (strain N315)) | 34.5 |
| Cc1cc(N2C(=O)C(=O)C(C(=O)c3ccc(C)o3)C2c2ccc(OCc3ccccc3)cc2)no1 (centres undefined) | Probable nicotinate-nucleotide adenylyltransferase (Staphylococcus aureus (strain N315)) | 28.9 |
| CC(=NNC(=O)c1cccc(N=NC(C)c2ccco2)c1)c1ccco1 (centres undefined) | Probable nicotinate-nucleotide adenylyltransferase (Staphylococcus aureus (strain N315)) | 14.8 |
| O=C(O)Cc1sc(N=NCc2ccccc2)nc1-c1ccccc1 | Probable nicotinate-nucleotide adenylyltransferase (Staphylococcus aureus (strain N315)) | 27.7 |
| N#CC1C(=S)N=C(N)C(c2nc(-c3ccccc3)cs2)C12CCCC2 (centres undefined) | Probable nicotinate-nucleotide adenylyltransferase (Staphylococcus aureus (strain N315)) | 19.1 |

[I] CCOC(=O)c1ccccc1-n1c(O)c2c(c1O)C(C=Cc1ccccc1)c1sc(=O)[nH]c1S2 (centres undefined)
[II] Cc1ccc(-n2[nH]c(C)c(C(c3cccc(O)c3)c3c(C)[nH]n(-c4ccc(C)c(C)c4)c3=O)c2=O)cc1C
[III] COc1cccc(OCc2cc(CN=Nc3ccc(C(=O)O)cc3)ccc2OC)c1
Lookup: // sort entries: IC50, high to low When ranking, write the labels in the order the request describes.
Found: I, III, II

----------
# assay-system: Probable nicotinate-nucleotide adenylyltransferase (Staphylococcus aureus (strain N315), UniProt P65502)
property-measured: IC50 (µM)

| molecule | measured-result |
| --- | --- |
| Cc1ccc(-n2c(O)cc(N(CCc3ccccc3)C(=S)Nc3ccc(N(C)C)cc3)c2O)cc1 [SMR000159829] | 77.7 |

[A] CCOc1ccc(CN=Nc2ccc(S(=O)(=O)Nc3ccccc3C(=O)O)cc2[N+](=O)[O-])cc1
[B] O=C1C(=O)N(c2nc3ccc(Cl)cc3s2)C(c2ccco2)C1C(=O)c1ccco1 (centres undefined)
Lookup: # return whichever of A and B has the smaller IC50 // respond with label for picked entry
Found: A
(A: 15.6 µM, B: 56.8 µM)

[a] Cc1[nH]n(-c2ccc(Cl)cc2)c(=O)c1C(c1ccccc1O)c1c(C)[nH]n(-c2ccc(Cl)cc2)c1=O [SMR000171531]
[b] Nc1ccccc1C(=O)NNC(=O)C(=O)CC(=O)c1ccccc1 [SMR000427706]
[c] Cc1ccccc1COc1ccc(C(=O)C2C(=O)C(=O)N(CCCn3ccnc3)C2c2ccco2)cc1 (centres undefined)
[d] C1=NC2CCCC2C(N2CCCC2)=C1 (centres undefined)
Lookup: Hey, can you sort those molecules up there by IC50, smallest first? When ranking, write the labels in the order the request describes.
Found: b, a, d, c
(b: 12 µM, a: 21.1 µM, d: 50 µM, c: 80 µM)
